B1: KRT71 (parent)
chain: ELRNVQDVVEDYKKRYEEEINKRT

Variants of: B1
Assay: protein stability index of a GFP-peptide fusion (GPS, HEK-293T) (PSI 1-6); higher = more stable;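 further: lentivirally expressed fusions sorted by FACS into six bins by GFP to DsRed ratio, PSI derived from sequencing read proportions per bin multiplied by bin number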
Conditions: c terminus: a fixed tail appended
Parameter threshold = 4. Response is Criterion met when protein stability index meets or exceeds it, else Criterion not met.

Please check the record "R15V" and state if its protein stability index is at or above 4.
Criterion not met

Please check the record "E17Y" and state if its protein stability index is at or above 4.
Criterion not met

Please check the record "N4E" and state if its protein stability index is at or above 4.
Criterion met

Please check the record "N21A" and state if its protein stability index is at or above 4.
Criterion met

Please check the record "K22G" and state if its protein stability index is at or above 4.
Criterion not met

Please check the record "E17L" and state if its protein stability index is at or above 4.
Criterion met

Please check the record "R3L" and state if its protein stability index is at or above 4.
Criterion not met

Please check the record "V5M" and state if its protein stability index is at or above 4.
Criterion not met

Please check the record "Y12K" and state if its protein stability index is at or above 4.
Criterion not met

Please check the record "K22D" and state if its protein stability index is at or above 4.
Criterion not met
